B1: scFv; the commonest letter at each place (parent)
chain 1: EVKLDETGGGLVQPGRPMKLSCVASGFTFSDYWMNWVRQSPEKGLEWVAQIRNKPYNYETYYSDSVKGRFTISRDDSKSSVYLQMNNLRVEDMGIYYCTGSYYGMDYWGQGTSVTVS
chain 2: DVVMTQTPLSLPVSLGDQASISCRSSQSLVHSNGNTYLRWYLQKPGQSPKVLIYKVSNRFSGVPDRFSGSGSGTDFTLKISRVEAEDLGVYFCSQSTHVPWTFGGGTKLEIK

Variants of: B1
ASSAY_COMMENT: yeast surface expression (ratio to wild type); higher = more expressed
ASSAY_SETUP: format: scFv 4-4-20, heavy + light
ENDPOINT_LABEL: yeast surface expression

q: Return yeast surface expression (reported value) for this variant: chain 1 Y32H M34H
a: 0.674

q: Give recorded yeast surface expression. chain 1 D31Y M34K
a: 0.834

q: # return recorded yeast surface expression for entry chain 1 D31K W36T
a: 0.343

q: Note down yeast surface expression recorded for chain 1 Y107A G109M
a: 0.209

q: Given chain 1 S30R W36G , respond with its yeast surface expression.
a: 0.171
